src = patent US12310970B2

experiment: Solubility / dissolution in aqueous media; type: physicochemical; conditions: aqueous buffer; pH 7.4 phosphate buffer (no saline)
parameter: solubility (µg/mL)

{"columns": ["line-notation", "unit-name", "result"],
 "data": [
  ["Cc1cc(C2CCCCC2)n(O)c(=O)c1", "µg/mL", 1000]
]}
